# Tested on: 596521-263-R-J1-PDC complex spheroid growth;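 note: spheroids exposed to compounds for 7 days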
# test protocol: Anticancer human tumor 596521-263-R-J1-PDC patient-derived soft tissue sarcoma cell line growth inhibition [Asc]
# experimental context: second compound 0.0316 µM; first compound 0.0316 µM; stronger effect = lower value
# Description: Multicellular complex tumor spheroid response to apoptosis pathway targeting inhibitors Alrizomadlin, Pelcitoclax, and Dasminapant in combination with a variety of drugs and investigational agents in selected tumor cell lines […] Compounds. […] If the clinical Cmax for an agent had not been determined, the highest concentration tested was 10 microM. […]
# key: entry, value: viability, T/C
assay endpoint: viability, T/C (%)

- C#Cc1c(F)ccc2cc(O)cc(-c3ncc4c(N5CC6CCC(C5)N6)nc(OCC56CCCN5CC(F)C6)nc4c3F)c12 (centres undefined) + CNC(C)C(=O)NC1CN(S(=O)(=O)c2cccc(S(=O)(=O)N3CCC4CCC(C(=O)NC(c5ccccc5)c5ccccc5)N4C(=O)C(NC(=O)C(C)NC)C3)c2)CCC2CCC(C(=O)NC(c3ccccc3)c3ccccc3)N2C1=O: 90.2
- O=C(c1ccc(F)c(F)c1Nc1ccc(I)cc1F)N1CC(O)([C@@H]2CCCCN2)C1 + Cc1c(S(C)(=O)=O)c(-c2cc(F)cc(N3CCN(c4ccc(NS(=O)(=O)c5ccc(NC(CCN6CCC(C(=O)OCCCP(=O)(O)O)CC6)CSc6ccccc6)c(S(=O)(=O)C(F)(F)F)c5)cc4)CC3)c2)c(-c2ccc(Cl)cc2)n1C(C)C: 93.3
- C#Cc1c(F)ccc2cc(O)cc(-c3ncc4c(N5CC6CCC(C5)N6)nc(OCC56CCCN5CC(F)C6)nc4c3F)c12 (centres undefined) + Cc1c(S(C)(=O)=O)c(-c2cc(F)cc(N3CCN(c4ccc(NS(=O)(=O)c5ccc(NC(CCN6CCC(C(=O)OCCCP(=O)(O)O)CC6)CSc6ccccc6)c(S(=O)(=O)C(F)(F)F)c5)cc4)CC3)c2)c(-c2ccc(Cl)cc2)n1C(C)C: 84.7
- O=C(c1cc(Cc2n[nH]c(=O)c3ccccc23)ccc1F)N1CCN(C(=O)C2CC2)CC1 + CNC(C)C(=O)NC1CN(S(=O)(=O)c2cccc(S(=O)(=O)N3CCC4CCC(C(=O)NC(c5ccccc5)c5ccccc5)N4C(=O)C(NC(=O)C(C)NC)C3)c2)CCC2CCC(C(=O)NC(c3ccccc3)c3ccccc3)N2C1=O: 90.9
- CCN1CCN(Cc2ccc(Nc3ncc(F)c(-c4cc(F)c5nc(C)n(C(C)C)c5c4)n3)nc2)CC1 + Cc1c(S(C)(=O)=O)c(-c2cc(F)cc(N3CCN(c4ccc(NS(=O)(=O)c5ccc(NC(CCN6CCC(C(=O)OCCCP(=O)(O)O)CC6)CSc6ccccc6)c(S(=O)(=O)C(F)(F)F)c5)cc4)CC3)c2)c(-c2ccc(Cl)cc2)n1C(C)C: 92
- C=C(F)C(=O)N1CCN(c2nc(OCC3CCCN3C)nc3c2CCN(c2cccc4cccc(Cl)c24)C3)CC1CC#N (centres undefined) + Cc1c(S(C)(=O)=O)c(-c2cc(F)cc(N3CCN(c4ccc(NS(=O)(=O)c5ccc(NC(CCN6CCC(C(=O)OCCCP(=O)(O)O)CC6)CSc6ccccc6)c(S(=O)(=O)C(F)(F)F)c5)cc4)CC3)c2)c(-c2ccc(Cl)cc2)n1C(C)C: 110
- CCN1CCN(Cc2ccc(Nc3ncc(F)c(-c4cc(F)c5nc(C)n(C(C)C)c5c4)n3)nc2)CC1 + CNC(C)C(=O)NC1CN(S(=O)(=O)c2cccc(S(=O)(=O)N3CCC4CCC(C(=O)NC(c5ccccc5)c5ccccc5)N4C(=O)C(NC(=O)C(C)NC)C3)c2)CCC2CCC(C(=O)NC(c3ccccc3)c3ccccc3)N2C1=O: 79
- O=C(c1ccc(F)c(F)c1Nc1ccc(I)cc1F)N1CC(O)([C@@H]2CCCCN2)C1 + CNC(C)C(=O)NC1CN(S(=O)(=O)c2cccc(S(=O)(=O)N3CCC4CCC(C(=O)NC(c5ccccc5)c5ccccc5)N4C(=O)C(NC(=O)C(C)NC)C3)c2)CCC2CCC(C(=O)NC(c3ccccc3)c3ccccc3)N2C1=O: 84.9
- COc1c(OCCCN2CCOCC2)ccc2c3n(c(=NC(=O)c4cnc(N)nc4)nc12)CCN3 + Cc1c(S(C)(=O)=O)c(-c2cc(F)cc(N3CCN(c4ccc(NS(=O)(=O)c5ccc(NC(CCN6CCC(C(=O)OCCCP(=O)(O)O)CC6)CSc6ccccc6)c(S(=O)(=O)C(F)(F)F)c5)cc4)CC3)c2)c(-c2ccc(Cl)cc2)n1C(C)C: 79.2
